Recorded values, source PubChem BioAssay (EPA / NIEHS).

# MEASUREMENT TARGET: Transcription factor Sp1 (Homo sapiens) (UniProt P08047)
# Sequence (P08047 whole entry, looked up): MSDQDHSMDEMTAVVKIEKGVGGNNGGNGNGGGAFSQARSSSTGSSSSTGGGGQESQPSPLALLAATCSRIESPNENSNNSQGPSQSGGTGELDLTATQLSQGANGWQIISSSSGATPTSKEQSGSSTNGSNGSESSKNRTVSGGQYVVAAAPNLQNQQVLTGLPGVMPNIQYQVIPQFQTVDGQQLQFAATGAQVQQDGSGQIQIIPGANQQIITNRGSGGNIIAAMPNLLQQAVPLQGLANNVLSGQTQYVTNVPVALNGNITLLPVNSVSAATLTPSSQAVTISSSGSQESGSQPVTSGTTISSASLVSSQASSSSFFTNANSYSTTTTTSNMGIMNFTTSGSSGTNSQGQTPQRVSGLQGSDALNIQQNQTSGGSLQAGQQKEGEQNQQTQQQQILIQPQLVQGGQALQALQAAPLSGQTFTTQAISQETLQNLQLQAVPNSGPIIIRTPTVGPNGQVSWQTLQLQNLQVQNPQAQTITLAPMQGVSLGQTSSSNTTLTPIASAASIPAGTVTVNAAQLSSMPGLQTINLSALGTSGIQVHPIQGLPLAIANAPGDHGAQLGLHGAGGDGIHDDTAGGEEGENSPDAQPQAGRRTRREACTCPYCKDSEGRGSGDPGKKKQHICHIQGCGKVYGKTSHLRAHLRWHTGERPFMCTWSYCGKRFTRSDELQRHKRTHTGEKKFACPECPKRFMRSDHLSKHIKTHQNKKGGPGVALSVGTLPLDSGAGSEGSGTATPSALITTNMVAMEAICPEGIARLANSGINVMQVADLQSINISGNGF
# ASSAY INFO: ATG_Sp1_CIS: Attagene CIS-FACTORIAL HepG2 Assay for human Specificity Protein 1 (Sp1) (AID 2282961)
# CONDITION LABEL: HepG2 Sp1 cis-reporter transcription, actives raise or lower the signal
Calls of active or inactive are those of the source. How the source made its calls: active means hit-call score of the fitted dose curve at least 0.9, where 1 is the maximum; inactive means score below 0.9.
Outcome codes: t (active), f (inactive)

>  <COMPOUND>
CSc1nnc(C(C)(C)C)c(=O)n1N

>  <CLASSIFICATION>
f

$$$$
>  <COMPOUND>
CCNc1nc(Cl)nc(NC(C)(C)C#N)n1

>  <CLASSIFICATION>
f

$$$$
>  <COMPOUND>
CNC(=O)ON=C(C)SC

>  <CLASSIFICATION>
f

$$$$
>  <COMPOUND>
CCCCSP(=O)(SCCCC)SCCCC

>  <CLASSIFICATION>
t

$$$$
>  <COMPOUND>
CNc1cnn(-c2cccc(C(F)(F)F)c2)c(=O)c1Cl

>  <CLASSIFICATION>
f

$$$$
>  <COMPOUND>
CCCCN(CC)c1c([N+](=O)[O-])cc(C(F)(F)F)cc1[N+](=O)[O-]

>  <CLASSIFICATION>
f

$$$$
>  <COMPOUND>
Cc1nn(-c2cc(NS(C)(=O)=O)c(Cl)cc2Cl)c(=O)n1C(F)F

>  <CLASSIFICATION>
f

$$$$
>  <COMPOUND>
CC(C)=CC1C(C(=O)OCN2C(=O)C3=C(CCCC3)C2=O)C1(C)C (configuration not stated)

>  <CLASSIFICATION>
f

$$$$
>  <COMPOUND>
CCc1cccc(C)c1N(C(=O)CCl)C(C)COC (configuration not stated)

>  <CLASSIFICATION>
f

$$$$
>  <COMPOUND>
CCCCOC(=O)c1ccccc1C(=O)O

>  <CLASSIFICATION>
f

$$$$
>  <COMPOUND>
CCC(=O)Nc1ccc(Cl)c(Cl)c1

>  <CLASSIFICATION>
f

$$$$
>  <COMPOUND>
CCC(CC)Nc1c([N+](=O)[O-])cc(C)c(C)c1[N+](=O)[O-]

>  <CLASSIFICATION>
f

$$$$
>  <COMPOUND>
COc1cc(OC)nc(Sc2cccc(Cl)c2C(=O)O)n1

>  <CLASSIFICATION>
f

$$$$
>  <COMPOUND>
Cc1cc(C2CC2)nc(Nc2ccccc2)n1

>  <CLASSIFICATION>
t

$$$$
>  <COMPOUND>
CC(C)[C@H](C(=O)O[C@H](C#N)c1cccc(Oc2ccccc2)c1)c1ccc(Cl)cc1

>  <CLASSIFICATION>
f

$$$$
>  <COMPOUND>
COP(=O)(OC)SCn1c(=O)oc2cc(Cl)cnc21

>  <CLASSIFICATION>
f

$$$$
>  <COMPOUND>
CCCCOC(=O)[C@@H](C)Oc1ccc(Oc2ccc(C#N)cc2F)cc1

>  <CLASSIFICATION>
f

$$$$
>  <COMPOUND>
CCOP(=S)(OCC)OC(Cl)C(Cl)(Cl)Cl (configuration not stated)

>  <CLASSIFICATION>
f

$$$$
>  <COMPOUND>
CN(C)NC(=O)CCC(=O)O

>  <CLASSIFICATION>
f

$$$$
>  <COMPOUND>
CCOP(=O)(OCC)Oc1cc(C)nc(C(C)C)n1

>  <CLASSIFICATION>
f

$$$$
>  <COMPOUND>
CCOP(=S)(Oc1cnc(C(C)(C)C)nc1)OC(C)C (configuration not stated)

>  <CLASSIFICATION>
t

$$$$
>  <COMPOUND>
CCOP(=S)(OCC)Oc1cc(C)nc(C(C)C)n1

>  <CLASSIFICATION>
f

$$$$
>  <COMPOUND>
CN1COCN(Cc2cnc(Cl)s2)C1=N[N+](=O)[O-]

>  <CLASSIFICATION>
f

$$$$
>  <COMPOUND>
COP(=O)(OC)OC(Br)C(Cl)(Cl)Br (configuration not stated)

>  <CLASSIFICATION>
f

$$$$
>  <COMPOUND>
CC1=NNC(=O)N(/N=C/c2cccnc2)C1

>  <CLASSIFICATION>
f

$$$$
>  <COMPOUND>
CCCSP(=O)(OCC)SCCC

>  <CLASSIFICATION>
f

$$$$
>  <COMPOUND>
CN(C)[C@@H]1C(=O)C(C(N)=O)=C(O)[C@@]2(O)C(=O)C3=C(O)c4c(O)cccc4[C@@](C)(O)[C@H]3[C@H](O)[C@@H]12

>  <CLASSIFICATION>
f

$$$$
>  <COMPOUND>
C=C(C)[C@H]1Cc2c(ccc3c2O[C@@H]2COc4cc(OC)c(OC)cc4[C@@H]2C3=O)O1

>  <CLASSIFICATION>
t

$$$$
>  <COMPOUND>
CCc1cccc(CC)c1N(COC)C(=O)CCl

>  <CLASSIFICATION>
t

$$$$
>  <COMPOUND>
O=[N+]([O-])c1cc(C(F)(F)F)c(Cl)c([N+](=O)[O-])c1Nc1ncc(C(F)(F)F)cc1Cl

>  <CLASSIFICATION>
f

$$$$
>  <COMPOUND>
CSc1nc(NC(C)C)nc(NC(C)C)n1

>  <CLASSIFICATION>
f

$$$$
>  <COMPOUND>
CON=C(C(=O)OC)c1ccccc1CON=C(C)c1cccc(C(F)(F)F)c1

>  <CLASSIFICATION>
f

$$$$

* * *

# Read-out: catalase (CAT), CAT (gene 847)
# ASSAY INFO: LTEA_HepaRG_CAT: Life Technologies and Expression Analysis (LTEA) Assay for catalase (CAT) using HepaRG (AID 2283452)
# CONDITION LABEL: mRNA level, 48 h; actives raise or lower the signal
Activity calls are given as the source filed them. Rule for the calls: active = hit-call score of the fitted dose curve at least 0.9, where 1 is the maximum; inactive = score below 0.9.
Outcome codes: 1 (yes) = active, 0 (no) = inactive

>  <COMPOUND>
CN(C)NC(=O)CCC(=O)O

>  <CLASSIFICATION>
0 (no)

$$$$
>  <COMPOUND>
CCC(=O)Nc1ccc(Cl)c(Cl)c1

>  <CLASSIFICATION>
0 (no)

$$$$
>  <COMPOUND>
CCCCOC(=O)c1ccccc1C(=O)O

>  <CLASSIFICATION>
0 (no)

$$$$
>  <COMPOUND>
CC(C)[C@H](C(=O)O[C@H](C#N)c1cccc(Oc2ccccc2)c1)c1ccc(Cl)cc1

>  <CLASSIFICATION>
0 (no)

$$$$
>  <COMPOUND>
COP(=O)(OC)SCn1c(=O)oc2cc(Cl)cnc21

>  <CLASSIFICATION>
0 (no)

$$$$
>  <COMPOUND>
CC1=NNC(=O)N(/N=C/c2cccnc2)C1

>  <CLASSIFICATION>
0 (no)

$$$$
>  <COMPOUND>
CSC1=N[C@@](C)(c2ccccc2)C(=O)N1Nc1ccccc1

>  <CLASSIFICATION>
1 (yes)

$$$$
>  <COMPOUND>
CCOP(=S)(OCC)Oc1cc(C)nc(C(C)C)n1

>  <CLASSIFICATION>
0 (no)

$$$$
>  <COMPOUND>
C=C(C)[C@H]1Cc2c(ccc3c2O[C@@H]2COc4cc(OC)c(OC)cc4[C@@H]2C3=O)O1

>  <CLASSIFICATION>
1 (yes)

$$$$
>  <COMPOUND>
CC(C)=CC1C(C(=O)OCN2C(=O)C3=C(CCCC3)C2=O)C1(C)C (configuration not stated)

>  <CLASSIFICATION>
0 (no)

$$$$
>  <COMPOUND>
CCOP(=O)(NC(C)C)Oc1ccc(SC)c(C)c1 (configuration not stated)

>  <CLASSIFICATION>
0 (no)

$$$$
>  <COMPOUND>
O=c1ccc(=O)[nH][nH]1

>  <CLASSIFICATION>
0 (no)

$$$$

* * *

# Read-out: Monocyte Chemoattractant Protein-1 (MCP1), CCL2 (gene 6347)
# ASSAY INFO: BSK_LPS_MCP1: BioMAP Diversity Plus: LPS Assay for Monocyte Chemoattractant Protein-1 (MCP1) Biomarker Activity (AID 2283081)
# CONDITION LABEL: primary human HUVEC with PBMC; actives raise or lower the signal
Calls of active or inactive are those of the source. Rule for the calls: active = hit-call score of the fitted dose curve at least 0.9, where 1 is the maximum; inactive = score below 0.9.
Outcome codes: class 1 = active, class 0 = inactive

>  <COMPOUND>
CCCCSP(=O)(SCCCC)SCCCC

>  <CLASSIFICATION>
class 1

$$$$
>  <COMPOUND>
C#CC(C)(C)NC(=O)c1cc(Cl)cc(Cl)c1

>  <CLASSIFICATION>
class 0

$$$$
>  <COMPOUND>
C=C(C)[C@H]1Cc2c(ccc3c2O[C@@H]2COc4cc(OC)c(OC)cc4[C@@H]2C3=O)O1

>  <CLASSIFICATION>
class 1

$$$$
>  <COMPOUND>
Cc1nn(-c2cc(NS(C)(=O)=O)c(Cl)cc2Cl)c(=O)n1C(F)F

>  <CLASSIFICATION>
class 0

$$$$
>  <COMPOUND>
COc1ccc(C(=CC(=O)N2CCOCC2)c2ccc(Cl)cc2)cc1OC

>  <CLASSIFICATION>
class 1

$$$$
>  <COMPOUND>
COP(=O)(OC)C(O)C(Cl)(Cl)Cl (configuration not stated)

>  <CLASSIFICATION>
class 0

$$$$
>  <COMPOUND>
COP(=O)(OC)SCn1c(=O)oc2cc(Cl)cnc21

>  <CLASSIFICATION>
class 0

$$$$
>  <COMPOUND>
CN(C)NC(=O)CCC(=O)O

>  <CLASSIFICATION>
class 0

$$$$
>  <COMPOUND>
CCOP(=O)(SC(C)CC)N1CCSC1=O (configuration not stated)

>  <CLASSIFICATION>
class 0

$$$$
>  <COMPOUND>
CC(C)=CC1C(C(=O)OCN2C(=O)C3=C(CCCC3)C2=O)C1(C)C (configuration not stated)

>  <CLASSIFICATION>
class 1

$$$$
>  <COMPOUND>
CCOP(=S)(OCC)OC(Cl)C(Cl)(Cl)Cl (configuration not stated)

>  <CLASSIFICATION>
class 0

$$$$
>  <COMPOUND>
O=C(O)c1cc(Oc2ccc(C(F)(F)F)cc2Cl)ccc1[N+](=O)[O-]

>  <CLASSIFICATION>
class 0

$$$$
